Entries and their melting point

| compound | melting point |
| --- | --- |
| COCCn1nc(-c2ccc(Cl)cc2)c2ccccc2c1=O | 116 to 118 °C |
| N=c1cc(N)nc2n1CCS2 | 146 to 148 °C |
| CCN(CC)c1cc(C)c2ncc(C#N)c(O)c2c1 | > 250 °C |
| Cc1oc(-c2ccccc2)nc1COc1ccc(CCCc2nnn[nH]2)cn1 | 137 to 138 °C |
| COCC(=O)Nc1ccc2c(c1)CCC2 | 104 to 105 °C |
| CCS(=O)(=O)C(F)(F)C(O)(Cn1cncn1)c1ccc(F)cc1 (stereo not given) | 131 to 132 °C |
| C[C@@H]1C(=O)C[C@H]2C[C@@H]1OO[C@@]2(C)/C=C\c1ccc(Cl)cc1 | 90 °C |
| CC(C)(O)Cn1c(CO)nc2c(N)nc3cc(-c4cccc(C(=O)N5CCOCC5)c4)cnc3c21 | 153 to 155 °C |
| CCc1c(-c2ccc(OCc3ccccc3)cc2)c2cc(C(=O)O)c3cccc1n32 | 223 to 224 °C |
| COC(=O)Nc1nc2cc(SCC3(C)CC3(Cl)Cl)ccc2[nH]1 (stereo not given) | 175 to 178 °C |
